Biological target: recombinant Mcl-1 (residues 172-327) (Homo sapiens (Human))
Sequence (Q07820 172-327): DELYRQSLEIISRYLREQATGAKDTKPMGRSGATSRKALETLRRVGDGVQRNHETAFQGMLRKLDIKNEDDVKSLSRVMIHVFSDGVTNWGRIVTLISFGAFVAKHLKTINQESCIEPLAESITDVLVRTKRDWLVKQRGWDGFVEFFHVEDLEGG
Test: Fluorescence polarization anisotropy competition assay (FITC-Bak or FITC-Bim BH3 peptide) with Mcl-1
Assay type: binding
Details: Table 2; Ki bins given in nM; FITC-Bak or FITC-Bim peptide competition; Ki converted from IC50; read-out: Ki for Inhibition of Mcl-1
# Ki annotations
MEASURED_ENDPOINT: Ki

compound=Cc1cc(OCCCc2c3n(c4c(-c5c(C)nn(C)c5C)c(Cl)ccc24)CCCN(c2cc(Cn4ccnc4)cc(C(=O)O)c2)C3=O)cc(C)c1Cl experimental_value="< 50 nM"
compound=Cc1cc(OCCCc2c(C(=O)NCc3cccn3CC(=O)O)[nH]c3c(-c4c(C)nn(C)c4C)cccc23)cc(C)c1Cl experimental_value="< 50 nM"
compound=Cc1cc(OCCCc2c(C(=O)N3CCC[C@H]3C(=O)O)[nH]c3c(-c4c(C)nn(C)c4C)c(Cl)ccc23)cc(C)c1Cl experimental_value="< 50 nM"
compound=Cc1cc(OCCCc2c3n(c4c(-c5c(C)nn(C)c5C)c(Cl)ccc24)CCCN(Cc2cc(COc4ccccc4C(F)(F)F)cc(C(=O)O)c2)C3=O)cc(C)c1Cl experimental_value="51 to 100 nM"
compound=Cc1cc(OCCCc2c3n(c4c(-c5c(C)nn(C)c5C)c(Cl)ccc24)C[C@H](C)N(Cc2cccc(C(=O)O)c2)C3=O)cc(C)c1Cl experimental_value="< 50 nM"
compound=Cc1cc(OCCCc2c3n(c4c(-c5c(C)nn(C)c5C)c(Cl)ccc24)CCCN(c2ccc(C(=O)O)c(F)c2)C3=O)cc(C)c1Cl experimental_value="< 50 nM"
compound=Cc1cc(OCCCc2c3n(c4c(-c5c(C)nn(C)c5C)c(Cl)ccc24)CCCN(c2cc(C(=O)O)cc(-c4cccnc4C)c2)C3=O)cc(C)c1Cl experimental_value="< 50 nM"
compound=Cc1cc(OCCCc2c3n(c4c(-c5c(C)nn(C)c5C)c(Cl)ccc24)C[C@@H](C)N(c2cc(C(=O)O)cc4c2ccn4C)C3=O)cc(C)c1Cl experimental_value="< 50 nM"
compound="Cc1cc(OCCCc2c3n(c4c(-c5c(C)nn(C)c5C)c(Cl)ccc24)CCC(C)N(Cc2ccc(C(=O)O)cn2)C3=O)cc(C)c1Cl (stereo not shown)" experimental_value="< 50 nM"
compound=Cc1cc(OCCCc2c(C(=O)NCC(=O)NS(=O)(=O)c3ccc4ccccc4c3)[nH]c3ccccc23)cc(C)c1Cl experimental_value="101 to 299 nM"
compound=Cc1cc(OCCCc2c(C(=O)NCC(=O)NS(=O)(=O)C3CC3)[nH]c3ccccc23)cc(C)c1Cl experimental_value="501 to 999 nM"
compound=Cc1cc(OCCCc2c3n(c4c(-c5c(C)nn(C)c5C)c(Cl)ccc24)CCN(c2ccc(C(=O)O)c4ncccc24)C3=O)cc(C)c1Cl experimental_value="< 50 nM"
compound=Cc1cc(OCCCc2c3n(c4c(-c5c(C)nn(C)c5C)c(Cl)ccc24)CCCN(c2cc(C(=O)O)cc(N(C)CCN(C)C)c2)C3=O)cc(C)c1Cl experimental_value="< 50 nM"
compound=Cc1cc(OCCCc2c3n(c4c(-c5c(C)nn(C)c5C)c(Cl)ccc24)CCCN(c2cc(CN4CCOCC4)cc(C(=O)O)c2)C3=O)cc(C)c1Cl experimental_value="< 50 nM"
compound=Cc1cc(OCCCc2c3n(c4c(-c5c(C)nn(C)c5C)c(Cl)ccc24)CCCN(Cc2cc(C(=O)O)cc(OCCC(C)C)n2)C3=O)cc(C)c1Cl experimental_value="< 50 nM"
compound=Cc1cc(OCCCc2c(C(=O)NCc3cccc(C(=O)O)c3)[nH]c3c(-c4c(CN5CCCC5)nn(C)c4C)cccc23)cc(C)c1Cl experimental_value="< 50 nM"
compound=Cc1cc(OCCCc2c(C(=O)Nc3ccc(C(=O)O)c(N4CCN(C)CC4)c3)[nH]c3c(-c4c(C)nn(C)c4C)c(Cl)ccc23)cc(C)c1Cl experimental_value="< 50 nM"
compound=Cc1cc(OCCCc2c(C(=O)NCc3ccc(C(=O)N[C@@H](Cc4ccccc4)C(=O)O)o3)[nH]c3c(-c4c(C)nn(C)c4C)cccc23)cc(C)c1Cl experimental_value="< 50 nM"
compound=Cc1cc(OCCCc2c3n(c4c(-c5c(C)nn(C)c5C)c(Cl)ccc24)[C@@H](C)CN(c2ccc(C(=O)O)cc2)C3=O)cc(C)c1Cl experimental_value="< 50 nM"
compound=Cc1cc(OCCCc2c3n(c4c(-c5c(C)nn(C)c5C)c(Cl)ccc24)[C@@H](C)CN(c2cc(C(=O)O)cc4c2ccn4C)C3=O)cc(C)c1Cl experimental_value="< 50 nM"
compound=COC(=O)c1cccc(CNC(=O)c2[nH]c3c(-c4c(C)n[nH]c4C)cccc3c2CCCOc2cc(C)c(Cl)c(C)c2)c1 experimental_value="301 to 500 nM"
compound=Cc1cc(OCCCc2c(C(=O)N[C@@H]3CCCN(C(=O)C(=O)O)C3)[nH]c3c(-c4c(C)nn(C)c4C)c(Cl)ccc23)cc(C)c1Cl experimental_value="< 50 nM"
compound=Cc1cc(OCCCc2c3n(c4c(-c5c(C)nn(C)c5C)c(Cl)ccc24)CCCN(c2cc(C(=O)O)c4c(Cl)cn(C)c4c2)C3=O)cc(C)c1Cl experimental_value="< 50 nM"
compound=Cc1cc(OCCCc2c(C(=O)Nc3ccc(C(=O)NS(=O)(=O)c4ccc([N+](=O)[O-])cc4)cc3)[nH]c3c(-c4cccnc4C)cccc23)cc(C)c1Cl experimental_value="101 to 299 nM"
compound=Cc1cc(OCCCc2c3n(c4c(-c5c(C)nn(C)c5C)c(Cl)ccc24)[C@H](C)CN(c2ccc(C(=O)O)cc2)C3=O)cc(C)c1Cl experimental_value="< 50 nM"
